normalized growth reference
experiment: chemical genetic growth profiling, strain panel (AID 1159580);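 also: tested at 20 µM; growth read once vehicle control cultures reached saturation at 30 °C; 1 = growth at the plate median or of vehicle wells; lower values mean less growth of the strain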; settings: S. cerevisiae deletion strains, growth OD, locus YDR195W, strain ref2
The campaign covered roughly 5,500 compounds. About 2,000 (36%) were called active. Roughly 18% stayed inconclusive and do not appear here. This is one part of the list. Where a SMILES comes first, the peptide text is derived from it. Side-chain parts run from the residue outwards. [ ]: non-standard residue; d: D form. The star is where a group is joined. X1 = CCC(C)C(N)C1=NC(C(=O)*)CS1; Orn = NCCC[CH](N)C(=O)O
Give only the figure.

MOLECULE	VALUE_MEASURED
NC1C[C@H]1c1ccccc1 (some centres undefined)	0.974
COc1ccc(C2C(=O)c3ccccc3C2=O)cc1	1.09
CN(C)CCc1c[nH]c2ccc(C[C@H]3COC(=O)N3)cc12	0.978

Here's the next entry for you.
CCC(C)C(N)C1=NC(C(=O)NC(CC(C)C)C(=O)NC(CCC(=O)O)C(=O)NC(C(=O)NCCCCC2NC(=O)C(CC(N)=O)NC(=O)C(CC(=O)O)NC(=O)C(Cc3cnc[nH]3)NC(=O)C(Cc3ccccc3)NC(=O)C(C(C)CC)NC(=O)C(CCCN)NC2=O)C(C)CC)CS1 (stereo not drawn) (cyclo(DNK([Ile-Glu-Leu-X1])[Orn]IFH); configuration not given here) has a reported normalized growth of 0.976

---

test: chemical genetic growth profiling, strain panel (AID 1159580);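 also: tested at 20 µM; growth read once vehicle control cultures reached saturation at 30 °C; 1 = growth at the plate median or of vehicle wells; lower values mean less growth of the strain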; settings: S. cerevisiae deletion strains, growth OD, locus YKL190W, strain CNB1, hits give low values
Hit rate of the full screen: of about 5,500 compounds, about 2,000 (36%) were called active. Inconclusive results (about 18%) are left out. This is one part of the list.
Readings of normalized growth for the listed compounds

# annotated cases, reported normalized growth shown
COMPOUND	REPORTED_METRIC	VALUE_MEASURED
CC(=O)Oc1cc2c(c(C)c1OC(C)=O)CC1OC13C2(C)CCC1(C)C2CC(C)(C(=O)O)CCC2(C)CCC13C (centres undefined)	normalized growth	1 (inactive)
Cc1cc(C(C)(C)C)cc(C)c1CC1=NCCN1	normalized growth	1.02 (inactive)
O=C(Nc1cccnc1)c1cccc(Cl)c1Cl	normalized growth	0.989 (inactive)
Cc1onc(-c2ccccc2)c1C(=O)NC1C(=O)N2[C@@H]1SC(C)(C)[C@@H]2C(=O)O (some centres undefined)	normalized growth	1.01 (inactive)

Memo: COC(=O)[C@]1(C)CC[C@]2(C)CC[C@]3(C)C4=CC=C5C(=CC(=O)C(O)=C5C)[C@]4(C)CC[C@@]3(C)[C@@H]2C1 , reported normalized growth: 0.712 (active)

Consider Cc1onc(-c2ccccc2Cl)c1C(=O)N[C@@H]1C(=O)N2[C@@H]1SC(C)(C)[C@@H]2C(=O)O . Its measured normalized growth is 1.01 (inactive)

Measured normalized growth of CC1(C)S[C@@H]2[C@H](NC(=O)Cc3ccccc3)C(=O)N2[C@H]1C(=O)O : 1.01 (inactive)

Kindly note the recorded normalized growth for Cc1cc(C(C)(C)C)c(O)c(C)c1CC1=NCCN1 , which is 0.991 (inactive)

Lab book: normalized growth of Cc1ccc(N(CC2=NCCN2)c2cccc(O)c2)cc1 noted as 1.01 (inactive)

---

test: chemical genetic growth profiling, strain panel (AID 1159580);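 also: tested at 20 µM; growth read once vehicle control cultures reached saturation at 30 °C; 1 = growth at the plate median or of vehicle wells; lower values mean less growth of the strain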; conditions: S. cerevisiae deletion strains, growth OD, locus YAL026C, strain drs2, hits give low values
The whole screen tested about 5,500 compounds, of which about 2,000 (36%) were called active. About 18% were inconclusive and are not listed. This is one part of the list. Where a SMILES comes first, the peptide text is derived from it. Bridges are numbered along the chain shown (N, C = ends). Side-chain parts run from the residue outwards. [ ]: non-standard residue; d: D form. The star is where a group is joined. Octanoyl(6-Me) = CCC(C)CCCCC(=O)*; X1 = CCC(C)C(N)C1=NC(C(=O)*)CS1; Orn = NCCC[CH](N)C(=O)O; Dab = NCC[CH](N)C(=O)O
REPORTED_METRIC: normalized growth
Give the figure only, with no unit attached.

As a guide, the following entries are already answered.
COMPOUND	VALUE_MEASURED
CCC(C)CCCCC(=O)NC(CCN)C(=O)NC(C(=O)NC(CCN)C(=O)NC1CCNC(=O)C(C(C)O)NC(=O)C(CCN)NC(=O)C(CCN)NC(=O)C(CC(C)C)NC(=O)C(Cc2ccccc2)NC(=O)C(CCN)NC1=O)C(C)O (centres undefined) ({Octanoyl(6-Me)}-[Dab]T[Dab][Dab][Dab]FL[Dab][Dab]T; lactam 4-C; configuration not given here)	0.934
CC1(C)C(=O)[C@@H]2C[C@@]3(O)C4=CC(=O)O[C@@H](c5ccoc5)[C@]4(C)CCC3[C@@](C)(C2=O)[C@H]1CC(=O)O (some centres undefined)	1.02
CCC(C)C(N)C1=NC(C(=O)NC(CC(C)C)C(=O)NC(CCC(=O)O)C(=O)NC(C(=O)NCCCCC2NC(=O)C(CC(N)=O)NC(=O)C(CC(=O)O)NC(=O)C(Cc3cnc[nH]3)NC(=O)C(Cc3ccccc3)NC(=O)C(C(C)CC)NC(=O)C(CCCN)NC2=O)C(C)CC)CS1 (stereo not drawn) (cyclo(DNK([Ile-Glu-Leu-X1])[Orn]IFH); configuration not given here)	0.929
NC(N)=NC(N)=Nc1ccccc1	0.998
CC(C)CC1NC(=O)C(CCCN)NC(=O)C(C(C)C)NC(=O)C2CCCN2C(=O)C(Cc2ccccc2)NC(=O)C(CC(C)C)NC(=O)C(CCCN)NC(=O)C(C(C)C)NC(=O)C2CCCN2C(=O)C(Cc2ccccc2)NC1=O (centres undefined) (cyclo(FPV[Orn]LFPV[Orn]L); configuration not given here)	0.911
Cc1c(NC(=O)c2cccnc2)c(=O)n(-c2ccccc2)n1C	0.999
COc1c2c(cc3c1OCO3)C13C=C[C@H](OC)CC1N(C2)CC3O (some centres undefined)	0.976
CC(=O)Oc1ccccc1C(=O)O	1
COc1cc2c(cc1OC)[C@@H]1C(=O)c3ccc4c(c3O[C@@H]1CO2)CC(C(C)C)O4 (some centres undefined)	0.969
COc1cc(/C=C/C(=O)N2CCC=CC2=O)cc(OC)c1OC	1

Quick note, normalized growth for CC1=CC2C(C(C)C)CCC(C)(O)C2CC1 (centres undefined) landed at 1.01

get_value(item= CO[C@@]1(NC(=O)Cc2cccs2)C(=O)N2C(C(=O)O)=C(COC(N)=O)CS[C@@H]21 , readout=normalized growth) returns 0.969

For record CCOC([O-])=Nc1c[n+](N2CCOCC2)no1 the listed normalized growth is 0.999

Measured normalized growth of CN(C)CCc1c[nH]c2ccc(C[C@H]3COC(=O)N3)cc12 : 1.01
